System: TAB165
assay: qHTS profiling for inhibitors of Plasmodium falciparum proliferation (AID 504749); also: nearly all actives have a fitted effect of over 60% in size
condition_label: P. falciparum in erythrocytes, SYBR Green DNA, 72 h; series mostly up to 28.7 µM
Inconclusive results are not listed. Active and inactive are the calls of the source. Calls follow the shape of the dose curve; as a rule, active = well fitted inhibition curve with a large enough effect; inconclusive = small, poorly fitted or top-dose-only effect; inactive = flat fitted curve, though single readings scatter.
Field 'call' accepts YES (active), NO (inactive)

Query: Fill in: this test's call for CN1CC(=O)N2C(Cc3c([nH]c4ccccc34)[C@H]2c2ccc3c(c2)OCO3)C1=O (stereo partly drawn) is ___
Result: NO

Query: Fill in: this test's call for Clc1ccc(COC(Cn2ccnc2)c2ccc(Cl)cc2Cl)c(Cl)c1 (stereo not drawn) is ___
Result: YES

Query: Fill in: this test's call for N#CC(c1ccc(Cl)cc1)c1c(Cl)cc(-n2ncc(=O)[nH]c2=O)cc1Cl (stereo not drawn) is ___
Result: NO

Query: Fill in: this test's call for O=C1C(CCC(O)c2ccc(F)cc2)C(c2ccc(O)cc2)N1c1ccc(F)cc1 (stereo not drawn) is ___
Result: NO

Query: Fill in: this test's call for `COc1cc2c(cc1OC)CC(=O)N(CCCN(C)C[C@H]1Cc3cc(OC)c(OC)cc31)CC2` is ___
Result: NO

Query: Fill in: this test's call for `CC(C)CN(C[C@@H](O)[C@H](Cc1ccccc1)NC(=O)O[C@H]1CO[C@H]2OCC[C@H]21)S(=O)(=O)c1ccc(N)cc1` is ___
Result: NO

Query: Fill in: this test's call for `COc1c(C)c2c(c(O)c1CC=C(C)CCC(=O)OCCN1CCOCC1)C(=O)OC2` is ___
Result: YES

Query: Fill in: this test's call for Cc1cc2nc3c(=O)[nH]c(=O)nc-3n(CC(O)C(O)C(O)CO)c2cc1C (stereo not drawn) is ___
Result: NO
